Values were extracted from ChEMBL document CHEMBL1201862.

Let's look at some molecules and their measured GI50.
# System: SK-MEL-28
# Measurement notes: NCI tumour cell line growth inhibition, 48 h
Activity calls are given as the source filed them. Cut-off read from the data, not from the text of the source: active = GI50 up to about 1.1 µM and inactive = higher.
Quantity: GI50

# Molecule, Tested target, Quantity, Recorded result
measured = [
    ("CC1CC2CCCC(=O)C2=C(O)O1 (stereo not drawn)", "SK-MEL-28", "GI50", "> 100 µM (inactive)"),
    ("CCC(=O)N1NC(=O)C(CC)(CC)C1=O", "SK-MEL-28", "GI50", "> 100 µM (inactive)"),
    ("COC(=O)C(C(=O)C(=O)Nc1ccccc1C#N)c1nc2ccc([N+](=O)[O-])cc2nc1O (stereo not drawn)", "SK-MEL-28", "GI50", "> 100 µM (inactive)"),
    ("CCOC(=O)C(NC(=O)NC(C(=O)OCC)C(=O)OCC)C(=O)OCC", "SK-MEL-28", "GI50", "> 100 µM (inactive)"),
    ("CCOC(=O)c1cccn1S(=O)(=O)c1cc(Cl)ccc1NC(=O)CC", "SK-MEL-28", "GI50", "> 100 µM (inactive)"),
    ("N#CC(C(=O)/C(=N/Nc1nc(S)nn1N)C(C#N)c1ccccc1)c1ccccc1 (stereo not drawn)", "SK-MEL-28", "GI50", "> 100 µM (inactive)"),
    ("Nc1nc(-c2ccccc2)cc(-c2cc(Cl)ccc2O)n1", "SK-MEL-28", "GI50", "> 100 µM (inactive)"),
    ("O=C(NC1=C(Cl)C(=O)c2ccccc2C1=O)C(=O)C(C(=O)c1ccc2ccccc2c1)C1OC(=O)c2ccccc21 (stereo not drawn)", "SK-MEL-28", "GI50", "4.59 µM (inactive)"),
    ("CC1(CO)C(=O)OC12CCCCC2 (stereo not drawn)", "SK-MEL-28", "GI50", "> 100 µM (inactive)"),
    ("Cc1ccc(NC(=O)CSc2nc(C)nc3c2sc(=S)n3-c2ccccc2)cc1", "SK-MEL-28", "GI50", "> 10 µM (inactive)"),
    ("CS/C(c1ccccc1)=[N+](\\[O-])Cc1ccccc1", "SK-MEL-28", "GI50", "> 100 µM (inactive)"),
    ("O=C(/C=C/c1cccc([N+](=O)[O-])c1)c1ccc([N+](=O)[O-])cc1", "SK-MEL-28", "GI50", "> 100 µM (inactive)"),
    ("O=C(CN1CCNCCN(CC(=O)N2CCCCC2)CCNCC1)N1CCCCC1", "SK-MEL-28", "GI50", "> 100 µM (inactive)"),
    ("O=C(O)Cc1cc(=O)[nH]c2c1C(=O)CCC2", "SK-MEL-28", "GI50", "> 100 µM (inactive)"),
    ("CN(C)CCNC(=O)c1cccc2c1C(=O)c1ccccc1C2=O", "SK-MEL-28", "GI50", "45.3 µM (inactive)"),
    ("CN(C)CCNC(=O)c1cccc2ccc(-c3cccnc3)nc12", "SK-MEL-28", "GI50", "11.6 µM (inactive)"),
    ("CC(C)(C)OC(=O)N1C(=O)OC[C@@H]2C=C[C@@H]21", "SK-MEL-28", "GI50", "> 100 µM (inactive)"),
    ("N#CC1Cc2cc3c(cc21)OCO3 (stereo not drawn)", "SK-MEL-28", "GI50", "> 100 µM (inactive)"),
    ("COc1ccc(C(OCC2OC(n3cc(C)c(=O)[nH]c3=O)CC2n2cc(Cn3cc(Cl)c(=O)[nH]c3=O)nn2)(c2ccccc2)c2ccccc2)cc1 (stereo not drawn)", "SK-MEL-28", "GI50", "87.5 µM (inactive)"),
    ("Cc1ccc(Cc2cc(N3CCN(c4cccc(Cl)c4)CC3)nnc2C)cc1", "SK-MEL-28", "GI50", "> 100 µM (inactive)"),
    ("CC(C)OC(=O)NNc1c(Cl)cc(Cl)cc1Cl", "SK-MEL-28", "GI50", "> 100 µM (inactive)"),
    ("COP1(=S)OCC2CCC[C@@H]2O1 (stereo partly drawn)", "SK-MEL-28", "GI50", "> 100 µM (inactive)"),
    ("N#Cc1cc2c(cc1Cl)Sc1nccn1S2(=O)=O", "SK-MEL-28", "GI50", "2.32 µM (inactive)"),
]
